- TEST METHOD NOTES: Cytotoxicity against human HEK293T cells assessed as reduction in cell viability incubated for 48 hrs by CCK-8 assay
- Format: toxicity, cell-based, HEK-293T
Task for the reader: assign each of the following compounds its reported CC50 at 48 h.

According to the records, this compound NC12CC3CC(CC(C3)C1)C2 [AMANTADINE] displays CC50 at 48 h of > 100 µM

According to the records, this compound CC(C)(C)OC(=O)NCCCC[C@H](NC(=O)OC(C)(C)C)C(=O)NCCCCCCCCC(=O)Nc1ccc(NC(=S)NC(=O)c2ccc(C(C)(C)C)cc2)cc1 displays CC50 at 48 h of > 100 µM

According to the records, this compound CC(C)(C)OC(=O)N[C@@H](Cc1c[nH]c2ccccc12)C(=O)NCCCC(=O)Nc1ccc(NC(=S)NC(=O)c2ccc(C(C)(C)C)cc2)cc1 displays CC50 at 48 h of 95.4 µM

According to the records, this compound CC(C)(C)OC(=O)NCCCC[C@H](NC(=O)OC(C)(C)C)C(=O)NCCCCCCCCCC(=O)Nc1ccc(NC(=S)NC(=O)c2ccc(C(C)(C)C)cc2)cc1 displays CC50 at 48 h of > 100 µM

According to the records, this compound CC(C)(C)OC(=O)N[C@@H](Cc1c[nH]c2ccccc12)C(=O)NCCCCCCCC(=O)Nc1ccc(NC(=S)NC(=O)c2ccc(C(C)(C)C)cc2)cc1 displays CC50 at 48 h of > 100 µM

According to the records, this compound CC(C)(C)OC(=O)NCCCC[C@H](NC(=O)OC(C)(C)C)C(=O)NCCCCCCCC(=O)Nc1ccc(NC(=S)NC(=O)c2ccc(C(C)(C)C)cc2)cc1 displays CC50 at 48 h of > 100 µM

----------
- TEST METHOD NOTES: Selectivity index, ratio of CC50 for cytotoxicity against human HEK293T cells to EC50 for anti-influenza activity against Influenza A virus A/WSN/33(H1N1) infected in HEK293T cells assessed as reduction in virus-induced cytopathic effect
- Type: toxicity, cell-based
- CONDITION SUMMARY: read-out: Ratio CC50/EC50
OBSERVATION TYPE: selectivity ratio
Answer with a bare number; do not write a unit.

According to the records, this molecule CC(C)(C)OC(=O)NCCCC[C@H](NC(=O)OC(C)(C)C)C(=O)NCCCCCCCCCCC(=O)Nc1ccc(NC(=S)NC(=O)c2ccc(C(C)(C)C)cc2)cc1 displays selectivity ratio of 400

According to the records, this molecule CC(C)(C)OC(=O)N[C@@H](Cc1c[nH]c2ccccc12)C(=O)NCCCC(=O)Nc1ccc(NC(=S)NC(=O)c2ccc(C(C)(C)C)cc2)cc1 displays selectivity ratio of 167

According to the records, this molecule CC(C)(C)c1ccc(C(=O)NC(=S)Nc2ccc(NC(=O)CCCCCCCCCN)cc2)cc1 displays selectivity ratio of 21.1

According to the records, this molecule CC(C)(C)c1ccc(C(=O)NC(=S)Nc2ccc(N)cc2)cc1 displays selectivity ratio of 218

----------
- TEST METHOD NOTES: Selectivity index, ratio of CC50 for cytotoxicity against human HEK293T cells to EC50 for anti-influenza activity against Influenza A virus A/WSN/33(H1N1) infected in HEK293T cells assessed as reduction in virus-induced cytopathic effect
- Type: toxicity, cell-based
- CONDITION SUMMARY: read-out: Ratio CC50/EC50
OBSERVATION TYPE: selectivity ratio

According to the records, this compound CC(C)(C)OC(=O)/N=C(\NCCC[C@H](NC(=O)OC(C)(C)C)C(=O)NCCCCCCCC(=O)Nc1ccc(NC(=S)NC(=O)c2ccc(C(C)(C)C)cc2)cc1)NC(=O)OC(C)(C)C displays selectivity ratio of > 267

According to the records, this compound CC(C)(C)OC(=O)N[C@@H](Cc1c[nH]c2ccccc12)C(=O)NCCCCCCCCCCCC(=O)Nc1ccc(NC(=S)NC(=O)c2ccc(C(C)(C)C)cc2)cc1 displays selectivity ratio of > 103

According to the records, this compound CC(C)(C)OC(=O)NCCCC[C@H](NC(=O)OC(C)(C)C)C(=O)NCCCCCCCCC(=O)Nc1ccc(NC(=S)NC(=O)c2ccc(C(C)(C)C)cc2)cc1 displays selectivity ratio of > 4760

According to the records, this compound CC(C)(C)OC(=O)NCCCC[C@H](NC(=O)OC(C)(C)C)C(=O)NCCCCCCCCCC(=O)Nc1ccc(NC(=S)NC(=O)c2ccc(C(C)(C)C)cc2)cc1 displays selectivity ratio of > 2220

According to the records, this compound CC(C)(C)OC(=O)N[C@@H](Cc1c[nH]c2ccccc12)C(=O)Nc1ccc(NC(=S)NC(=O)c2ccc(C(C)(C)C)cc2)cc1 displays selectivity ratio of > 246
